The measurements presented in this section are drawn from patent US5789434A.

# system: MMP-3 (Homo sapiens, UniProt P08254)
# Construct: Truncated Prostromelysin-257 was expressed in a soluble form in E.coli; made in house; host or cells: E. coli
# Sequence (P08254 100-274 limits assumed): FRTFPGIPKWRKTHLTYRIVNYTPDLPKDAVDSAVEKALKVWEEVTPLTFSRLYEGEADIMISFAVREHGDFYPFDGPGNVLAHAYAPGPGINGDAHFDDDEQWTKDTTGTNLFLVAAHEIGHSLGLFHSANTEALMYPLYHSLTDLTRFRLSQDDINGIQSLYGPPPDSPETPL
# procedure.details: Automated MMP Profiling Assay, MMP-3 fluorogenic
# Assay type: biochemical
# experimental.context: 96-well automated, P218
observable: pIC50
Give bare numbers, as −log10 of the molar value.

Example molecules with recorded pIC50:
[[record]]
molecule = "CCCCC(=O)Nc1ccc(-c2ccc(C(=O)CC(CCc3ccccc3)C(=O)O)cc2)cc1 (stereo not shown)"
observable = "pIC50"
recorded_measurement = 5.99

[[record]]
molecule = "COC(=O)c1ccccc1SC[C@@H]1CC[C@H](C(=O)c2ccc(-c3ccc(Cl)cc3)cc2)[C@H]1C(=O)O (relative stereo)"
observable = "pIC50"
recorded_measurement = 7.34

[[record]]
molecule = "O=C(O)c1ccc(COc2ccc(-c3ccc(C(=O)CC(CCCc4ccccc4)C(=O)O)cc3)cc2)cc1 (stereo not shown)"
observable = "pIC50"
recorded_measurement = 7.55


Alright, here's another molecule for you.
Look up pIC50: O=C(O)[C@H]1[C@@H](Sc2ccccc2)CC[C@@H]1C(=O)c1ccc(-c2ccc(Cl)cc2)cc1 (relative stereo)
5.48

---

Could you please report measured pIC50 for the items listed next?
# system: MMP-3 (Homo sapiens)
# Construct: Truncated Prostromelysin-257 was expressed in a soluble form in E.coli; made in house; host or cells: E. coli
# procedure.details: Automated MMP Profiling Assay, MMP-3 fluorogenic
# Type: biochemical
# experimental.context: 96-well automated, P218
One number for each entry, as −log10 of the molar value.

Solved entries:
[[record]]
compound = "O=C(O)[C@H]1[C@H](CSc2ccccc2)CC[C@@H]1C(=O)c1ccc(-c2ccc(Cl)cc2)cc1 (relative stereo)"
recorded_measurement = 7.25

[[record]]
compound = "CCOc1ccc(-c2ccc(C(=O)CC(CCN3C(=O)c4ccccc4C3=O)C(=O)O)cc2)cc1 (stereo not shown)"
recorded_measurement = 7.68

[[record]]
compound = "O=C(CC(CCc1cccc(I)c1)C(=O)O)c1ccc(-c2ccc(OCc3ccccc3)cc2)cc1 (stereo not shown)"
recorded_measurement = 7.19

[[record]]
compound = "O=C(CC(CCN1C(=O)c2ccc(O)cc2C1=O)C(=O)O)c1ccc(-c2ccc(Cl)cc2)cc1 (stereo not shown)"
recorded_measurement = 7.85

[[record]]
compound = "COC(=O)c1ccccc1S[C@H]1CC[C@H](C(=O)c2ccc(-c3ccc(Cl)cc3)cc2)[C@H]1C(=O)O"
recorded_measurement = 7.24

[[record]]
compound = "COC(=O)c1cc(F)ccc1SCC(CC(=O)c1ccc(-c2ccc(Cl)cc2)cc1)C(=O)O (stereo not shown)"
recorded_measurement = 6.60


Turning now to a further record.
Please report the recorded pIC50 for O=C(CC(CCCc1ccccc1)C(=O)O)c1ccc(-c2ccc(OCc3ccc(F)cc3)cc2)cc1 (stereo not shown) .
7.49

---

Can you tell me pIC50 for the items I'm about to list?
# system: UniProt P08253
# Sequence (P08253 110-660): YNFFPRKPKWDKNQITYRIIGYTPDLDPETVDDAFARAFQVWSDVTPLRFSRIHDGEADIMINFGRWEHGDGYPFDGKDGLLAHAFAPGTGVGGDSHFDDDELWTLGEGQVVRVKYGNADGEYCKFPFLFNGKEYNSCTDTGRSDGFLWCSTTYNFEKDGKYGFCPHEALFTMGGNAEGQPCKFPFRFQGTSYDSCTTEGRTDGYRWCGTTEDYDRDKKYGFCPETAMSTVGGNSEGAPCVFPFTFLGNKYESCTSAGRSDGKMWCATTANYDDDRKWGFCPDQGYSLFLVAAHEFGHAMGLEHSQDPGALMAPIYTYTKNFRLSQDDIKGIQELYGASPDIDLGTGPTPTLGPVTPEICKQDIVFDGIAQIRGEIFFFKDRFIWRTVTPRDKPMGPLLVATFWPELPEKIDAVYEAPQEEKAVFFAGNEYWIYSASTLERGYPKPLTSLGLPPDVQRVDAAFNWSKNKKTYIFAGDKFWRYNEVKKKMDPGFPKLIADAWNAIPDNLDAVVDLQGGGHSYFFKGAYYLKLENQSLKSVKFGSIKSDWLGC
# procedure.details: Automated MMP Profiling Assay, MMP-2 fluorogenic
# Assay type: biochemical
# experimental.context: 96-well automated, P218; read-out: MMP-2 Fluorogenic IC50 (profiling)
Give bare numbers, as −log10 of the molar value.

Use the examples below as a reference point.
[[record]]
molecule = "CC(=O)OC[C@@H]1C[C@@H](C(=O)c2ccc(-c3ccc(Cl)cc3)cc2)[C@H]1C(=O)O (relative stereo) [Example 397]"
observable = "pIC50"
recorded_measurement = 6.12

[[record]]
molecule = "COc1ccc(COc2ccc(-c3ccc(C(=O)CC(CCCc4ccccc4)C(=O)O)cc3)cc2)cc1 (stereo not drawn) [Example 105]"
observable = "pIC50"
recorded_measurement = 7.85

[[record]]
molecule = "O=C(CC(CCCc1ccccc1)C(=O)O)c1ccc(-c2ccc(OCC3CCCCC3)cc2)cc1 (stereo not drawn) [Example 93]"
observable = "pIC50"
recorded_measurement = 7.44


Would you mind listing pIC50 for each of the following molecules?
1. CCOc1ccc(-c2ccc(C(=O)CC(CCN3C(=O)c4cc5ccccc5cc4C3=O)C(=O)O)cc2)cc1 (stereo not drawn) [Example 429]
2. O=C(CC(CCN1C(=O)c2cc3ccccc3cc2C1=O)C(=O)O)c1ccc(-c2ccc(Cl)cc2)cc1 (stereo not drawn) [Example 409]
3. O=C(CC(CCN1C(=O)c2ccccc2C1=O)C(=O)O)c1ccc(-c2ccc(Br)cc2)cc1 (stereo not drawn) [Example 270]
4. O=C(CC(CCN1C(=O)c2ccncc2C1=O)C(=O)O)c1ccc(-c2ccc(Cl)cc2)cc1 (stereo not drawn) [Example 417]
5. O=C(CC(CCc1ccccc1)C(=O)O)c1ccc(-c2ccc(OCc3ccccc3)cc2)cc1 (stereo not drawn) [Example 161]
6. CC(=O)O[C@@H]1C[C@H](C(=O)c2ccc(-c3ccc(Cl)cc3)cc2)[C@H]1C(=O)O (relative stereo) [Example 396]
7. CC(=O)NC(CC(=O)c1ccc(-c2ccc(Cl)cc2)cc1)C(=O)O (stereo not drawn) [Example 430]

1: 7.64; 2: 7.52; 3: 8.85; 4: 8.43; 5: 7.42; 6: 6.44; 7: 6.38
